- Tested System: T1, human CD30L expressed on B16 cells (human, UniProt P32971 1-234)
- T1 construct: whole, on cells; B16 cell line transfected to express human CD30L; also called B16-huCD30L; B16-rhCD30L
- T1 sequence (looked up): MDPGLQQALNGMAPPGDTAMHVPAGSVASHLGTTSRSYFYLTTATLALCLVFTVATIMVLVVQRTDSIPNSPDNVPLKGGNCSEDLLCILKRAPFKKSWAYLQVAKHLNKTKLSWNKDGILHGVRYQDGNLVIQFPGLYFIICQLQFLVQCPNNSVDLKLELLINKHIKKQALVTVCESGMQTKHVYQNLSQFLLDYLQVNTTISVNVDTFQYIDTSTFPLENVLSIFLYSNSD
- Assay Notes: flow cytometry, blocking of CD30-Fc on B16-huCD30L cells; competitor CD30-Fc
Measurement Kind: pIC50
Scale explanation: pIC50 corresponds to minus log10 of a concentration expressed in moles per litre.

Some binders with recorded pIC50:
Param item = anti-CD30L antibody clone 1 (antibody, V domains shown, also called clone 1 parental) VH: QVQLQESGPGLVKPSETLSLTCTVSGGSISGYYWSWIRQPPVKGLEWIGYIFYSGYTKYNPSLKSRVTISVDTSKNQFSLKLSSVTAADTAVYYCARDRWDFDYWGQGALVTVSS VL: AIQMTQSPSYLSASVGDRVTIACRASQGIRNNLGWYQQKPGKAPKLLIYAESSLQSGVPSRFSGSGSGTDFTLTISSLQPEDFATYYCLQDFNYPYTFGQGTKLEIK ; retrieve measured pIC50.
8.97

Param item = anti-CD30L antibody clone 2 germlined (antibody, V domains shown, also called germlined clone 2) VH: EVQLVESGGGLVQPGRSLRLSCAASGFNFDDYAMHWVRQAPGKGLEWVSGISWRSGNIGYADSVKGRFTISRDNAKNSLYLQMNSLRAEDTALYYCAKDKGIGFNWNYEGFDYWGQGTLVTVSS VL: DIQMTQSPSSLSASVGDRVTITCRASQGISNHLAWFQQKPGKAPKSLIYAASSLQSGVPSRFSGSGSGTDFTLTISSLQPEDFATYYCQQYVTYPLTFGGGTKVEIK ; retrieve measured pIC50.
9.17

Param item = anti-CD30L antibody clone 2 (antibody, V domains shown, also called clone 2 parental) VH: EVQLVESGGGLVQPGRSLRLSCAASGFNFDDYAMHWVRQAPGKGLEWVSGISWRSGNIGYAGSVKGRFTISRDNAKNSLYLQMNSLRPEDSALYYCAKDKGIGFNWNYEGFDYWGQGTLVTVSS VL: DIQMTQSPSSLSASVGDRVTITCRASQGISNHLAWFQQKPGKAPKSLIYAASSLQSGVPSKFSGSGSGTDFTLTISSLQPEDFATYYCQQYVTYPLTFGGGTKVEIK ; retrieve measured pIC50.
9.10

Attention now turns to another entry.
Param item = anti-CD30L Reference 1 antibody (antibody, human IgG1, lambda, V domains shown) VH: QVQLQESGPGLVKPSETLSLTCTVSGGSISSYIWSWIRQPAGKGLEWIGRIYASGNTNYNPSLKSRVTISVDTSKNQFSLKLSSMTAADTAVYYCARDYRVAGTYYYYYGLDVWGQGTTVTVSS VL: QSALTQPASVSGSPGQSITISCTGTSSDVGVYDYVSWYQQHPGKAPKLMIYEVSNRPSGVSNRFSGSKSGNTASLTISGLQTEDEADYYCSSYTSRSTWVFGGGTKLTVLG ; retrieve measured pIC50.
8.74
